Measured values drawn from PubChem BioAssay (NCI) for this set.

Tested on: HT29 colon
Assay: NCI tumour cell line growth inhibition, 48 h
Listed below: TGI values for each entry.

Entry under review: N=c1c2ccccc2nc2oc3cc([N+](=O)[O-])ccc3n12 . Reported TGI?
> 100 µM

# query: TGI of entry Cc1ccc(S(=O)(=O)NC(=O)NCc2ccc(S(N)(=O)=O)cc2)cc1
> 100 µM

Consider the compound N=C1C(=N)c2ccccc2-c2ccccc21.[Cl-].[Ru+2].c1cnc2c(c1)ccc1cccnc12.c1cnc2c(c1)ccc1cccnc12 and give its measured TGI.
> 100 µM

Which TGI is listed for O=C(c1cccc(O)c1O)c1cn(Cc2ccc(F)cc2)c2cccc(O)c12 ?
23.4 µM

# TGI lookup, item O=S(=O)(/N=S(/Nc1ccccc1)C(Cl)Cl)c1ccccc1 (stereo not given)
> 100 µM
